Values compiled from the supplement of paper PMC12042874.

test: amyloid nucleation score (Sup35N fusion, yeast selection) (log enrichment); library NNK3; higher = more nucleation; inactive = no reads after selection;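 further: zero at mode of non-aggregating sequences after 7 days selection at 30°C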
measurement label: amyloid nucleation score

| substance | amyloid nucleation score |
| --- | --- |
| LFSQHYWIVSIFIASWIRYC | inactive |
| CKTMFYY | inactive |
| GYLSFIVFMGGRPSLSGNSI | 1.42 |
| NRYIGNIYEKNGNSNFKPSI | inactive |
| NAYSKNVFQHVGMHTWSWYL | inactive |
| YVGTYNFICEAYALDMTEQW | inactive |

Please report amyloid nucleation score for the following substance: HVYLAQGL
inactive

Please report amyloid nucleation score for the following substance: NNVKRSSPDSQVPSQVSMRF
inactive

Please report amyloid nucleation score for the following substance: SLETMFMEKKRTSPNMVMLW
-0.42

---

Listed below: amyloid nucleation score values for each entry.
test: amyloid nucleation score (Sup35N fusion, yeast selection) (log enrichment); library NNK1; higher = more nucleation; inactive = no reads after selection
Lab note: jot the number down without any unit.

Consider the worked cases shown below.
| entry sequence | test result |
| --- | --- |
| RSSVVWLWSHYC | 0.588 |
| LGVMMFRCVL | 3.79 |
| YRRDYGPKSVDWRPYVVEVR | 0.359 |
| QTSIWFGDYYRKLSLCWHRP | 3.63 |

Please report amyloid nucleation score for the following sequence: PKMGSGHSWTRGQYICHS
-0.301

Please report amyloid nucleation score for the following sequence: RNHDANFPCRVDGPLQSTVR
0.135

Please report amyloid nucleation score for the following sequence: GAFGFITNRKRINCKLEDRD
-1.32

---

assay: amyloid nucleation score (Sup35N fusion, yeast selection) (log enrichment); library NNK2; higher = more nucleation; inactive = no reads after selection
Label rule, in plain words: amyloid nucleation score of 1 and up is Fulfilled, under 1 is Not fulfilled.

Please review the following examples before continuing.
| entry sequence | group |
| --- | --- |
| VSRSSRWYNRIGMVRSVWNK | Not fulfilled |
| RSVKDTPCLKLVLMKRDTLK | Not fulfilled |
| NVRVRLET | Not fulfilled |
| DKWAFVRITRQEPPASIRMD | Not fulfilled |
| ARFFGFYYPTTGIPGNYGFC | Not fulfilled |

Identify whether the reported amyloid nucleation score of the following sequence is 1 or greater: SWITPMRHLFSNHSLGLNAY
Not fulfilled

Identify whether the reported amyloid nucleation score of the following sequence is 1 or greater: GFDLNFRYA
Fulfilled

---

Listed below: amyloid nucleation score values for each entry.
test: amyloid nucleation score (Sup35N fusion, yeast selection) (log enrichment); library NNK2; higher = more nucleation; inactive = no reads after selection
Lab note: jot the number down without any unit.

Consider the worked cases shown below.
| entry sequence | amyloid nucleation score |
| --- | --- |
| GFPVWVYYKMDLYCLSVKGI | -0.672 |
| TGFQLVNWSNIGLWNNLYGR | 5.49 |
| ISDLFYANLLVIASNMVT | -1.46 |
| YKLAWARYGCIAVCTMLRFP | 0.102 |
| RIRSCTLMWT | 0.807 |
| NHITMFDRVSYYVKLKHYVA | 0.452 |
| LSTLLFRIYGLPS | -2.12 |
| CYMVRGYSFSNRWTAHGHEM | 2.51 |

Please report amyloid nucleation score for the following sequence: CPIYDRTQGLIGLWCLCNEC
-0.668

Please report amyloid nucleation score for the following sequence: VHTARLTWDLGYSVRCYYWT
6.47

Please report amyloid nucleation score for the following sequence: HYLEGYRFDLEMIVCICQKG
5.37

Please report amyloid nucleation score for the following sequence: IFDVNCPS
-0.196

Please report amyloid nucleation score for the following sequence: SSYESLCKIYLNFCQTD
6.76
